Parameter kon: see the listing below.
# TARGET UNDER TEST: Human IgG (Sigma-Aldrich Corporation) (human)
# PROTOCOL DETAILS: Biacore SPR; protein on NTA chip, human IgG injected
Give the value, in units of M⁻¹ s⁻¹, as a plain number.

Recorded kon, per entry:
- BINDER: "Protein expressed from pLL3T (SEQ ID NO: 26 repeated three times, n = 3) (designed binder) ATIRANLIYADGRTQTAEFRGTFEEATAEAYRYADLLARENGRYTVDVADRGYTLNIRFAPGATIRANLIYADGRTQTAEFRGTFEEATAEAYRYADLLARENGRYTVDVADRGYTLNIRFAPGATIRANLIYADGRTQTAEFRGTFEEATAEAYRYADLLARENGRYTVDVADRGYTLNIRFAPGGGGGCADDDDDDHHHHHH"
  kon (M⁻¹ s⁻¹): 301000
- BINDER: "pPL (SEQ ID NO: 3) (designed binder) ATIRANLIYADGRTQTAEFRGTFEEATAEAYRYADLLARENGRYTVDVADRGYTLNIRFAGGGGGCADDDDDDHHHHHH"
  kon (M⁻¹ s⁻¹): 151000
- BINDER: "Protein expressed from pGG3T (SEQ ID NO: 25 repeated three times, n = 3) (designed binder) AYRLILNGRTLRGETTTEAVDAATAERVFRQYANDNGVDGEWTYDDATRTFTVTERPEVIDASELTPAVTPGAYRLILNGRTLRGETTTEAVDAATAERVFRQYANDNGVDGEWTYDDATRTFTVTERPEVIDASELTPAVTPGAYRLILNGRTLRGETTTEAVDAATAERVFRQYANDNGVDGEWTYDDATRTFTVTERPEVIDASELTPAVTPGGGGGCADDDDDDHHHHHH"
  kon (M⁻¹ s⁻¹): "1.12e+06"

Field: next binder
Exam item: Record request: kon value, item pPG (SEQ ID NO: 2) (designed binder) AYRLILNGRTLRGETTTEAVDAATAERVFRQYANDNGVDGEWTYDDATRTFTVTERPEVIDASELTPAVTGGGGCADDDDDDHHHHHH
Marked response: 401000

Just for reference, patent US20090299035A1 is where these values come from.
